- Tested on: NCI-H23 lung
- testName: NCI tumour cell line growth inhibition, 48 h
// values below are reported TGI

Cc1c([C@H](C(Cl)Cl)[C@H](O)[C@H]2C[C@H](C)C(=O)O2)ccc2c1C(=O)[C@H]1[C@H]2C[C@@H](Br)[C@@]23O[C@@H](CO[C@H]2O)CC13C (stereo partly drawn); > 15.3 µM
COC(=O)CCC1=NOC(CC2CC(CCC(=O)OC)=NO2)C1 (stereo not drawn); > 100 µM
O=C1NC(=O)/C(=C/c2c(Cl)nc3sccn23)S1; > 100 µM

# get_value(readout='TGI', item= COC(=O)C1C(O)C(C)C(=O)C(C)/C=C\C=C(C)C(=O)Nc2c(C)c(OC(C)=O)c3c(c2O)C(=O)C(C)=C2OCOC(=C23)C(C)=CC(C)(O)C(O)C(C)C1O (stereo not drawn) )
35 µM

# get_value(readout='TGI', item= CCCCc1c2c(nc3c1CCCC3=O)C(=O)CCC2 )
> 100 µM

# get_value(readout='TGI', item= C=CCSc1nc2c(N)ncnc2n1C1OC(CO)C(O)C1O (stereo not drawn) )
> 100 µM
